Below, each entry is listed with its recorded pIC50.
# Tested on: P. aeruginosa PA14
# PROCEDURE SUMMARY: IC50 of compounds in conjunction with colistin relative to P. aeruginosa (growth, absorbance at 600 nm)
# Assay type: cell-based
# TEST PARAMETERS: Pseudomonas aeruginosa; P. aeruginosa PA14 in LB; colistin held constant at sublethal concentration (0.25 to 0.375 pg/mL); 3-fold dilution starting with a 250 concentration; 17 h aerobic growth at 37° C.; absorbance at 600 nm; read-out: IC50
pIC50: −log10 of the molar value.
MEASUREMENT NAME: pIC50

STRUCTURE SMILES: O=C(CCCCCOc1ccc(C(=O)OCc2ccccc2)cc1)Nc1ccnc(C(F)(F)F)c1
RESULT: 5.59
--
STRUCTURE SMILES: O=C(CCCCCN1CCN(c2cccnc2)CC1)Nc1ccnc(C(F)(F)F)c1
RESULT: 4.15
--
STRUCTURE SMILES: C#Cc1ccccc1OCCCCCC(=O)Nc1ccnc(C(F)(F)F)c1
RESULT: 4.81
--
STRUCTURE SMILES: CSc1ccc(OCCCCCC(=O)Nc2ccnc(C(F)(F)F)c2)cc1
RESULT: 4.85
